Reported IC50 by item:
# TEST SYSTEM: recombinant human KLK5 (human) (UniProt Q9Y337)
# Sequence (Q9Y337 67-293): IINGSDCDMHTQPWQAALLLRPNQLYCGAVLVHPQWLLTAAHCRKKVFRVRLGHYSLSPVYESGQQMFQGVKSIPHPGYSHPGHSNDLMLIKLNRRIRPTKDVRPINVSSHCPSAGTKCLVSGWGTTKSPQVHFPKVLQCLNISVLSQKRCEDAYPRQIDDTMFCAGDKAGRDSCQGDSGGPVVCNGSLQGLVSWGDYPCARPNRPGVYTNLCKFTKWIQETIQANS
# PROTOCOL DESCRIPTION: pro-KLK1 coupled assay, 0.5 nM KLK5
The figure you give is taken to be in nM; do not add the unit.

# BINDER, VALUE UNITS, IC50
rows = [
    ("8B7 (antibody, V domains shown) VH: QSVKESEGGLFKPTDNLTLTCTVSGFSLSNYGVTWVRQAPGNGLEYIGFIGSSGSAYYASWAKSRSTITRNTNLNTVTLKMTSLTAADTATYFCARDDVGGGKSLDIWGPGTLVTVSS VL: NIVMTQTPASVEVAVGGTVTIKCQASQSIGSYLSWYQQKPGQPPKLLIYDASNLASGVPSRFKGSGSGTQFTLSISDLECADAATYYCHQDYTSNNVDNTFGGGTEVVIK", "nM", 0.125),
]

Next binder, IC50 to be filled in.
Dear colleague, I am looking for the recorded IC50 of the following binder: 9H5 (antibody, V domains shown) VH: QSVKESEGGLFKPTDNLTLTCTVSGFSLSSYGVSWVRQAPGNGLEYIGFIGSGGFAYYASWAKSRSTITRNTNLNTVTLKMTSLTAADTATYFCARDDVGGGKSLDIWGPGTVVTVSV VL: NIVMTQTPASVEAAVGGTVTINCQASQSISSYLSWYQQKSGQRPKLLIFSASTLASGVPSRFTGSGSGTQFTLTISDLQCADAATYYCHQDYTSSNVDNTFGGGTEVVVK
0.139
